Target: hFAP (M39-A757) (Homo sapiens (Human), UniProt Q12884)
Sequence (Q12884 39-757): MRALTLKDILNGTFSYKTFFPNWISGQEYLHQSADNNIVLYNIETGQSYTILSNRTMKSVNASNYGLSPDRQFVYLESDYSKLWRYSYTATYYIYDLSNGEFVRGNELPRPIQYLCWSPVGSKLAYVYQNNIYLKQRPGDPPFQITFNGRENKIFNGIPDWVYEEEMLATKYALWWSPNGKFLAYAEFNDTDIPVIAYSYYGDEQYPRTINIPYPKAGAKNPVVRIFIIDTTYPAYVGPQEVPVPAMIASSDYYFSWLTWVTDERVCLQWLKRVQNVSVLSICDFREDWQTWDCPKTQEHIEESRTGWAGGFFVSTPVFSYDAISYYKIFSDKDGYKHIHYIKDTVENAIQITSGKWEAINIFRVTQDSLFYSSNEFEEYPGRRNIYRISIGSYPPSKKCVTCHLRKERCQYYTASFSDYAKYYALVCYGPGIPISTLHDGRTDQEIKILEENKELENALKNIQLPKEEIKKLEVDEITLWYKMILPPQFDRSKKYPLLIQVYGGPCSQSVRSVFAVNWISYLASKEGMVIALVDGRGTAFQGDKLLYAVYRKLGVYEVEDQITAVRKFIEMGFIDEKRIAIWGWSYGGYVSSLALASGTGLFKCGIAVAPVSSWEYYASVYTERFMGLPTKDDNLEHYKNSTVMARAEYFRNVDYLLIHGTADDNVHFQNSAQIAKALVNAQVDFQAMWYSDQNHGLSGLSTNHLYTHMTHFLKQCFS
Test: hFAP binding assay (surface plasmon resonance)
Settings: SPR, 20° C., single cycle kinetics
Listed below: hFAP Binding assay k(on) values for each entry.
MEASURED_ENDPOINT: hFAP Binding assay k(on) (M⁻¹ s⁻¹)

compound="N#C[C@@H]1CSCN1C(=O)CNC(=O)c1ccnc2ccc(N3CCC[C@H]3C3CC3)cc12 (single isomer, unassigned)" measured_endpoint="hFAP Binding assay k(on)" assay_result=2500000
compound=N#C[C@@H]1CSCN1C(=O)CNC(=O)c1ccnc2ccc(-c3cnn(C4CC4)c3)cc12 measured_endpoint="hFAP Binding assay k(on)" assay_result=10000000
compound=N#C[C@@H]1CSCN1C(=O)CNC(=O)c1ccnc2ccc(N3CC4(CCC4)C3)cc12 measured_endpoint="hFAP Binding assay k(on)" assay_result=8300000
compound=N#C[C@@H]1CSCN1C(=O)CNC(=O)c1ccnc2ccc(N3CCO[C@@H](C(F)(F)F)C3)cc12 measured_endpoint="hFAP Binding assay k(on)" assay_result=2400000
compound=N#C[C@@H]1CSCN1C(=O)CNC(=O)c1ccnc2ccc(N3CC4CCC(C3)O4)cc12 measured_endpoint="hFAP Binding assay k(on)" assay_result=16000000
compound=C[C@H]1COC[C@H](C)N1c1ccc2nccc(C(=O)NCC(=O)N3CSC[C@H]3C#N)c2c1 measured_endpoint="hFAP Binding assay k(on)" assay_result=3000000
compound=CC1(O)CCN(c2ccc3nccc(C(=O)NCC(=O)N4CSC[C@H]4C#N)c3c2)CC1 measured_endpoint="hFAP Binding assay k(on)" assay_result=1800000
compound=N#C[C@@H]1CSCN1C(=O)CNC(=O)c1ccnc2ccc(N3CC(C4CC4)C3)cc12 measured_endpoint="hFAP Binding assay k(on)" assay_result=4500000
compound=CC1(C)CN(c2ccc3nccc(C(=O)NCC(=O)N4CSC[C@H]4C#N)c3c2)C(=O)O1 measured_endpoint="hFAP Binding assay k(on)" assay_result=9200000
compound="C[C@@H]1CCN(c2ccc3nccc(C(=O)NCC(=O)N4CSC[C@H]4C#N)c3c2)C1=O (single isomer, unassigned)" measured_endpoint="hFAP Binding assay k(on)" assay_result=1600000
compound=CC1(C(F)F)CN(c2ccc3nccc(C(=O)NCC(=O)N4CSC[C@H]4C#N)c3c2)C1 measured_endpoint="hFAP Binding assay k(on)" assay_result=1700000
compound=N#C[C@@H]1CSCN1C(=O)CNC(=O)c1ccnc2ccc(N3CC4(CC4)C[C@@H]3CF)cc12 measured_endpoint="hFAP Binding assay k(on)" assay_result=8800000000
compound=N#C[C@@H]1CSCN1C(=O)CNC(=O)c1ccnc2ccc(N3CCOCC3)c(Cl)c12 measured_endpoint="hFAP Binding assay k(on)" assay_result=740000
compound=C[C@@H]1COCCN1c1ccc2nccc(C(=O)NCC(=O)N3CSC[C@H]3C#N)c2c1 measured_endpoint="hFAP Binding assay k(on)" assay_result=1400000
compound=CC(F)(F)CC1CN(c2ccc3nccc(C(=O)NCC(=O)N4CSC[C@H]4C#N)c3c2)C1 measured_endpoint="hFAP Binding assay k(on)" assay_result=2600000
compound=COCC1(C)CN(c2ccc3nccc(C(=O)NCC(=O)N4CSC[C@H]4C#N)c3c2)C1 measured_endpoint="hFAP Binding assay k(on)" assay_result=1100000
compound="CO[C@H]1CCCN(c2ccc3nccc(C(=O)NCC(=O)N4CSC[C@H]4C#N)c3c2)C1 (mixture of isomers)" measured_endpoint="hFAP Binding assay k(on)" assay_result=680000
compound=CC(C)OC1CCN(c2ccc3nccc(C(=O)NCC(=O)N4CSC[C@H]4C#N)c3c2)CC1 measured_endpoint="hFAP Binding assay k(on)" assay_result=3200000
compound=CC(C)C1(O)CCN(c2ccc3nccc(C(=O)NCC(=O)N4CSC[C@H]4C#N)c3c2)CC1 measured_endpoint="hFAP Binding assay k(on)" assay_result=1300000
compound=N#C[C@@H]1CSCN1C(=O)CNC(=O)c1ccnc2ccc(N3C[C@@H](F)[C@H](F)C3)cc12 measured_endpoint="hFAP Binding assay k(on)" assay_result=2900000
compound=N#C[C@@H]1CSCN1C(=O)CNC(=O)c1ccnc2ccc(N3CC4(CC(C(F)(F)F)C4)C3)cc12 measured_endpoint="hFAP Binding assay k(on)" assay_result=280000
compound=CC(C)n1nccc1-c1ccc2nccc(C(=O)NCC(=O)N3CSC[C@H]3C#N)c2c1 measured_endpoint="hFAP Binding assay k(on)" assay_result=88000
compound=CC(C)C1CN(c2ccc3nccc(C(=O)NCC(=O)N4CSC[C@H]4C#N)c3c2)C1 measured_endpoint="hFAP Binding assay k(on)" assay_result=6600000
compound="N#C[C@@H]1CSCN1C(=O)CNC(=O)c1ccnc2ccc(-c3ccnn3[C@H]3CCCCO3)cc12 (mixture of isomers)" measured_endpoint="hFAP Binding assay k(on)" assay_result=120000
